Reference for the values: patent US12180255B2

Molecular target: His-CTDSP1 (Homo sapiens)
Construct: made in house; host or cells: E. coli 10G (Lucigen), pBAD-HisA
Sequence (Q9GZU7 with tags, fused parts or gaps): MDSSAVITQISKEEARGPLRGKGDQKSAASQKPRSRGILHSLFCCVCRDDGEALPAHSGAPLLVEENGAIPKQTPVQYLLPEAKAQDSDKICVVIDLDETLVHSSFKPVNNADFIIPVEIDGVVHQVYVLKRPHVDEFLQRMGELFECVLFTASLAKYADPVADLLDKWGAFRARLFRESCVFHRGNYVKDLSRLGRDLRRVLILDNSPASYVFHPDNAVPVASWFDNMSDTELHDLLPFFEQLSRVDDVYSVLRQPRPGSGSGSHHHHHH
Experiment: Binding affinity of RPP for CTDSP1, Monolith (NanoTemper)
Settings: His-CTDSP1 40 nM labelled with RED-tris NTA dye 20 nM
pKd: −log10 of the molar value.
property: pKd

# query: pKd of entry SEQ ID NO: 165: RPP-GST fusion protein, MCTEDLEPPEPPLPKENC linked to GST (Table 4)
~9.89

----------
Molecular target: CTDSP1 (Homo sapiens, UniProt Q9GZU7)
Construct: GSGS linker + His6 (C)
Sequence (Q9GZU7 with tags, fused parts or gaps): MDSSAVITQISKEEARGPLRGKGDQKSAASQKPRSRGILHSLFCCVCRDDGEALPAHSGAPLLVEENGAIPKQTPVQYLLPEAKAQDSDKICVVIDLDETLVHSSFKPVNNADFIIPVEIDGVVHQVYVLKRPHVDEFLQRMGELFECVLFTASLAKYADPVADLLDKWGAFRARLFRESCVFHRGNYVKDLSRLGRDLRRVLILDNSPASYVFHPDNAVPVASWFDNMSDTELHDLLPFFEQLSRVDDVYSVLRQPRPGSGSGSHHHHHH
Experiment: In vitro CTDSP1 phosphatase activity on phosphorylated REST peptide
Assay type: biochemical
Settings: 1 μM peptide-GST fusion; relative to GST control; substrate TEDpSPPpSPPLPKEN
Relative Phosphatase activity below 0.7 gives 0.0; Relative Phosphatase activity at or above it gives 1.0.

As a guide, the following entries are already answered.
[[record]]
sequence_input = "MCTEAPAPPEPALPKKKKNC [v4]"
class = 0.0

[[record]]
sequence_input = "MCTEVLVPRTTSGKGRLWFWLWSQKGHPSASACGS [v42]"
class = 0.0

[[record]]
sequence_input = "MCTEDLQLPKTTMTKEYC [v19]"
class = 1.0

[[record]]
sequence_input = "MCTEAPAPPEPALPKKKKKNC [v27]"
class = 0.0

[[record]]
sequence_input = "MCTEDQEQQEEQLPEENC [v9]"
class = 0.0


Exam item: decide whether the reported Relative Phosphatase activity for MCTKHLEPPGPPLPQENC [v17] is at least 0.7.
0.0

Exam item: decide whether the reported Relative Phosphatase activity for MCTEDLQQPERSQPMESC [v40] is at least 0.7.
0.0

Exam item: decide whether the reported Relative Phosphatase activity for MCTEDLQPPEPQLPEVNC [v23] is at least 0.7.
0.0

Exam item: decide whether the reported Relative Phosphatase activity for MCTEDLKPPEASLPEENC [v32] is at least 0.7.
1.0

Exam item: decide whether the reported Relative Phosphatase activity for MCNGDLERPEPPVAKEYC [v34] is at least 0.7.
1.0

Exam item: decide whether the reported Relative Phosphatase activity for MCTEDLKPPEPPLPKENC [v35] is at least 0.7.
0.0

Exam item: decide whether the reported Relative Phosphatase activity for MCSEDPEPPKTTMTKKNC [v31] is at least 0.7.
0.0

----------
Target: CTDSP1 (Homo sapiens)
Construct: GSGS linker + His6 (C)
Sequence (Q9GZU7 with tags, fused parts or gaps): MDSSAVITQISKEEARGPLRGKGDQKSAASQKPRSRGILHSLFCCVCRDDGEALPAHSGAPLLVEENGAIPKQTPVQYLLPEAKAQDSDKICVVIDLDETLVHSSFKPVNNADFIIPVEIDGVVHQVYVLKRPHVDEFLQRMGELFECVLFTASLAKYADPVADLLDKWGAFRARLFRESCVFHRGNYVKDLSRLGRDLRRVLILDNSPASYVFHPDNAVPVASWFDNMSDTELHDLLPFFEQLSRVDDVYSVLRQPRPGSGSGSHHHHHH
Experiment: In vitro CTDSP1 phosphatase activity on phosphorylated REST peptide
Format: biochemical
Conditions: 1 μM peptide-GST fusion; relative to GST control; substrate TEDpSPPpSPPLPKEN
property: Relative Phosphatase activity
Lab note: jot the number down without any unit.

// known answers, use as guide
[[record]]
sequence_input = "MCNEALEPPPLRKEHC [v36]"
test_result = 0.68

[[record]]
sequence_input = "MCSEAQEPPESRLPQVNC [v16]"
test_result = 0.79


# query: Relative Phosphatase activity of entry MCTGDLQPPEAQVIEVNC [v22]
0.59

# query: Relative Phosphatase activity of entry MCPEDLQPPEPALPEKKKKKIVVLALVVKSAVSVGVV [v41]
0.46

----------
Target: CTDSP1 (Homo sapiens)
Construct: GSGS linker + His6 (C)
Sequence (Q9GZU7 with tags, fused parts or gaps): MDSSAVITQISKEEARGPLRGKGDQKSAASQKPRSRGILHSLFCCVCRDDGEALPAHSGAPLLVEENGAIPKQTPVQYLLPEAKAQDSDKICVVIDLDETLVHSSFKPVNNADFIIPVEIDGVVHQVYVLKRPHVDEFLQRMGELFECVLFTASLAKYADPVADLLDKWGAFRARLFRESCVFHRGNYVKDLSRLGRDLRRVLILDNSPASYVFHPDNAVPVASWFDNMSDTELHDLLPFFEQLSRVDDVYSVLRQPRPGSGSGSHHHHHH
Assay: In vitro CTDSP1 phosphatase activity on phosphorylated REST peptide
Format: biochemical
Conditions: 1 μM peptide-GST fusion; relative to GST control; substrate TEDpSPPpSPPLPKEN
Method: FIG. 25. In vitro CTDSP1 phosphatase activity (relative to GST control) on the REST peptide (TEDpSPPp[…] (SEQ ID NO: 329)) as a substrate after exposure to 1 μM of RPP (SEQ ID NO: 1) or one of its variants (Table 3). FIG. 26. […] N=5, error bars are standard deviation. […] The phosphorylated REST peptide (TEDpSPPp[…] (SEQ ID NO: 329)) was synthesized by GeneScript. […] Fluorescence was measured by BioTek Synergy HTX using kinetic read with excitation at 420/27 nm and emission at 485/20 nm.
property: Relative Phosphatase activity
Lab note: jot the number down without any unit.

[[record]]
sequence_input = "MCPGDLKQPEPPMPKEYC [v11]"
property = "Relative Phosphatase activity"
test_result = 0.13

[[record]]
sequence_input = "MCTEALEPPEPPLTKENC [v47]"
property = "Relative Phosphatase activity"
test_result = 0.20

[[record]]
sequence_input = "MCTADLEPPEPRMEKKKVDC [v5]"
property = "Relative Phosphatase activity"
test_result = 0.49

[[record]]
sequence_input = "MCTAAPEPPEPPVSKEYC [v18]"
property = "Relative Phosphatase activity"
test_result = 0.43

[[record]]
sequence_input = "MCSVDLQPPARLRPMVNC [v46]"
property = "Relative Phosphatase activity"
test_result = 0.37


# query: Relative Phosphatase activity of entry MCTEDLEPPERPLPREIC [v38]
0.28

# query: Relative Phosphatase activity of entry MCTEAPAPPEPALPKKKKKKNC [v26]
0.46

# query: Relative Phosphatase activity of entry MCTEDLQPPKTTMAEKYC [v30]
0.62

----------
Target: CTDSP1 (Homo sapiens, UniProt Q9GZU7)
Construct: GSGS linker + His6 (C)
Sequence (Q9GZU7 with tags, fused parts or gaps): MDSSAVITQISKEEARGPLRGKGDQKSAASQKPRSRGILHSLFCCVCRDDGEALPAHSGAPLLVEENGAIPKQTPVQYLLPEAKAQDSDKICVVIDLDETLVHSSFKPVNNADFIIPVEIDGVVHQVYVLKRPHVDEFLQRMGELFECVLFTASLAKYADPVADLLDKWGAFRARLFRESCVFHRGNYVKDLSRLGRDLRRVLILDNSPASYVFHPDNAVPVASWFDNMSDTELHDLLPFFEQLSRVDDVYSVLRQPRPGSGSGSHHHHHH
Assay: In vitro CTDSP1 phosphatase activity on phosphorylated REST peptide
Type: biochemical
Conditions: 1 μM peptide-GST fusion; relative to GST control; substrate TEDpSPPpSPPLPKEN
Relative Phosphatase activity below 0.5 gives Not met; Relative Phosphatase activity at or above it gives Met.

As a guide, the following entries are already answered.
[[record]]
sequence_input = "MCAGDLEQPEPPVAKKKKKNC [v33]"
test_target = "CTDSP1 (Homo sapiens, UniProt Q9GZU7)"
class = "Not met"

[[record]]
sequence_input = "MCPEDLERPPLTKEHC [v37]"
test_target = "CTDSP1 (Homo sapiens, UniProt Q9GZU7)"
class = "Not met"

[[record]]
sequence_input = "MCTEDLQSPKTTMTKENC [v28]"
test_target = "CTDSP1 (Homo sapiens, UniProt Q9GZU7)"
class = "Not met"

[[record]]
sequence_input = "MCTADLKPPKTTMTKQNC [v10]"
test_target = "CTDSP1 (Homo sapiens, UniProt Q9GZU7)"
class = "Met"

[[record]]
sequence_input = "MCTAAPEPPEPQLPQANC [v44]"
test_target = "CTDSP1 (Homo sapiens, UniProt Q9GZU7)"
class = "Met"


Exam item: decide whether the reported Relative Phosphatase activity for MCTEDMEPRKTTMTKKYC [v25] is at least 0.5.
Met

Exam item: decide whether the reported Relative Phosphatase activity for MCAGDLKPPETTMSKKNC [v39] is at least 0.5.
Met

Exam item: decide whether the reported Relative Phosphatase activity for MCTGDLQPPESRQPQVNC [v21] is at least 0.5.
Not met
